Target: mouse ACVR2A (mouse, UniProt P27038 20-135, limits assumed); note: test concentration or dose not given here
Sequence (P27038 20-135 limits assumed): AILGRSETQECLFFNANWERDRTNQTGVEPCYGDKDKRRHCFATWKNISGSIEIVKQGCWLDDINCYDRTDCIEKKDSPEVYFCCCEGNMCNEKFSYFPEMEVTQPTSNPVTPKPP
Experiment: ELISA
Measured optical density values are reported for all entries that follow.
Form entry: value (OD) — number only.

Would you please look over these solved cases?
1) 368_D06 (antibody, V domains shown, Group II) VH: EVQLLESGGGLVQPGGSLRLSCAASGFTFSSYGMNWVRQAPGKGLEWVSNINYNGGYTGYADSVKGRFTISRDNSKNTLYLQMNSLRAEDTAVYYCARAATWHDTHLDYWGQGTLVTVSS VL: DIQMTQSPSSLSASVGDRVTITCRASQSILSYVNWYQQKPGKAPKLVIYAATSRHSGVPSRFSGSGSGTDFTLTISSLQPEDFATYYCQQSYENPLTFGGGTKVEIK    2.11
2) 365_C06 (antibody, V domains shown, Group I) VH: EVQLLESGGGLVQPGGSLRLSCAASGFTFSDYGMHWVRQAPGKGLEWVSGINYNGGYTSYADSVKGRFTISRDNSKNTLYLQMNSLRAEDTAVYYCARAANWHDTALDYWGQGTLVTVSS VL: DIQMTQSPSSLSASVGDRVTITCRASQSISTYVNWYQQKPGKAPKLLIYAVTSLASGVPSRFSGSGSGTDFTLTISSLQPEDFATYYCQQSYDNPLTFGGGTKVEIK    2.23

Could you now look at the following binder, please?
Query: Return optical density for the following binder: 370_G04 (antibody, V domains shown, Group I) VH: EVQLLESGGGLVQPGGSLRLSCAASGFTFSSYGMHWVRQAPGKGLEWVSGINYNGGYTGYADSVKGRFTISRDNSKNTLYLQMNSLRAEDTAVYYCARAANWHDTALDYWGQGTLVTVSS VL: DIQMTQSPSSLSASVGDRVTITCRASQSILSYVNWYQQKPGKAPKLLIYAATSRASGVPSRFSGSGSGTDFTLTISSLQPEDFATYYCQQSYSTPLTFGGGTKVEIK
Reply: 2.12
